Source listed as patent US20040014637A1.

target: insulin receptor (Rattus norvegicus, UniProt P15127); construct: from tissue; host or cells: rat liver; endosome (EN) and plasma membrane (PM) fractions; assay: 125I-insulin binding after preincubating endosomes (ENs containing IR) with nucleotides; details: Table 2; addition 10 mM, 37° C. 15 min; normalized to endosomes without nucleotide
Sequence (P15127 27-759 limits assumed): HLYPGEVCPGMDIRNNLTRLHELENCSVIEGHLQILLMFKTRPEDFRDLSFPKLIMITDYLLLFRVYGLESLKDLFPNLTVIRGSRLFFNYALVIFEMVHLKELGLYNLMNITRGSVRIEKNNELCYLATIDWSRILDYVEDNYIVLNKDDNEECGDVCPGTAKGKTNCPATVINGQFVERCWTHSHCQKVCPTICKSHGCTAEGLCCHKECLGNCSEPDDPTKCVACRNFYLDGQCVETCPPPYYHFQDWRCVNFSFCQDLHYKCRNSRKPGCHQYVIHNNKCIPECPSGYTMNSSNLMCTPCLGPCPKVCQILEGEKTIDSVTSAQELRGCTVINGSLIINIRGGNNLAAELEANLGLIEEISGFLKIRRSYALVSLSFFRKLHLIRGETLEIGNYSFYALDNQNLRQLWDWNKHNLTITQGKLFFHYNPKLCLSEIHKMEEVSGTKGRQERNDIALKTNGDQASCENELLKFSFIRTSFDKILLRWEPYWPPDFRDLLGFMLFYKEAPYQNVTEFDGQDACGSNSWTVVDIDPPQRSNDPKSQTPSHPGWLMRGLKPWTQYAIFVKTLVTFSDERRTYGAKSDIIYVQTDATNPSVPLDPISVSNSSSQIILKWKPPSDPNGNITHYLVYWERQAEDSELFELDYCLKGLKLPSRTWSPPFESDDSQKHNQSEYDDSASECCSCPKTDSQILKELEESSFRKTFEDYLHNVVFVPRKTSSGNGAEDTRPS
Sequence (P15127 764-1383 limits assumed): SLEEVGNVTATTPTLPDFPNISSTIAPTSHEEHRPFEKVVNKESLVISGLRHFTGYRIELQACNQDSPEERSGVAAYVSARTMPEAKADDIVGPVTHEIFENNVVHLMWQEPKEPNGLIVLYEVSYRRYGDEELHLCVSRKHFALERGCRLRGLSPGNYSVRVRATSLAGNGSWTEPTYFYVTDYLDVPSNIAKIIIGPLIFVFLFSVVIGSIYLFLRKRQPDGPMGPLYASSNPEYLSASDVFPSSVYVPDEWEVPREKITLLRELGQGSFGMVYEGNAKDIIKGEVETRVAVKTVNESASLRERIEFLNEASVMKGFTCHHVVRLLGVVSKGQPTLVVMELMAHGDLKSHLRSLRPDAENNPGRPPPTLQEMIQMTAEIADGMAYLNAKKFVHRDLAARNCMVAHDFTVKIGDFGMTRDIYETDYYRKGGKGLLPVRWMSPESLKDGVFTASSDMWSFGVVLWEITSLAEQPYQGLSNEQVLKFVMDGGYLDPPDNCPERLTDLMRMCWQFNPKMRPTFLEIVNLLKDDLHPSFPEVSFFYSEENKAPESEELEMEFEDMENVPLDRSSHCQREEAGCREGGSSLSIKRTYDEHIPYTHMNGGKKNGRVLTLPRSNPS
Parameter threshold = 90%. Response is rule met when 125I-Insulin specific binding (%), Solubilized endosomes meets or exceeds it, else rule not met.

Sample answers from the record:
1) Nc1ncnc2c1ncn2[C@@H]1O[C@H](COP(=O)(O)OP(=O)(O)O)[C@@H](O)[C@H]1O :: rule met
2) Nc1ncnc2c1ncn2[C@@H]1O[C@H](CO)[C@@H](O)[C@H]1O :: rule met
3) Nc1ncnc2c1ncn2[C@@H]1O[C@H](COP(=O)(O)OP(=O)(O)OP(=O)(O)O)[C@@H](O)[C@H]1O [ATP, adenosine 5′triphosphate] :: rule not met
4) Nc1ncnc2c1ncn2[C@@H]1O[C@H](COP(=O)(O)OP(=O)(O)CP(=O)(O)O)[C@@H](O)[C@H]1O :: rule met

# input for lookup
[in] Please tell me: is the compound Nc1ncnc2c1ncn2[C@@H]1O[C@H](COP(=O)(O)OP(=O)(O)NP(=O)(O)O)[C@@H](O)[C@H]1O at or over 90% in terms of 125I-Insulin specific binding (%), Solubilized endosomes?
[out] rule met
